biological target: human GPR119 receptor (Homo sapiens, UniProt Q8TDV5, S329A/T327A); construct: N-terminal leader […]; expressed in transfected cells; assay: cAMP assay (LANCE cAMP-384) in HEK293 cells stably expressing mutant human GPR119 receptor; type: cell-based; conditions: HEK293, 20 min; at 10 μM; printed in EC50 column of the 36th table; read-out: stimulation in % at 10 μM
Sequence (Q8TDV5 with tags, fused parts or gaps T327A/S329A): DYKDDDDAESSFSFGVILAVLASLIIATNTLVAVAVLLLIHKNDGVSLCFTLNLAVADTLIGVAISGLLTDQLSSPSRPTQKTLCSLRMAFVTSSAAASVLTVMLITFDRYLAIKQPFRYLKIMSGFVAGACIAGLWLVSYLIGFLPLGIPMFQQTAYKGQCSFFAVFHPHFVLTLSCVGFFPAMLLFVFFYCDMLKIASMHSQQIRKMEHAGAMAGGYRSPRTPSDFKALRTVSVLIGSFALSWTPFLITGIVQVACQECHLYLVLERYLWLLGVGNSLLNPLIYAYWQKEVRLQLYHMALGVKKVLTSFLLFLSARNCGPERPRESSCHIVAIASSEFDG
parameter: activation at 10 µM (%)

CS(=O)(=O)c1ccc(N2CCC(=NOC3CCN(Cc4cccnc4Cl)CC3)CC2)c(F)c1 :: 66
Cc1cc(CN2CCC(ON=C3CCN(c4ccc(S(C)(=O)=O)cc4F)CC3)CC2)oc1C :: 75
CN(C)c1ccc(CN2CCC(ON=C3CCN(c4ccc(S(C)(=O)=O)cc4F)CC3)CC2)cc1 :: 83

###

target: human GPR119 receptor (Homo sapiens, UniProt Q8TDV5, S329A/T327A); construct: N-terminal leader […]; expressed in transfected cells; assay: cAMP assay (LANCE cAMP-384) in HEK293 cells stably expressing mutant human GPR119 receptor; type: cell-based; conditions: the 36th table, compounds 66-1 to 66-51; read-out: EC50
// NB: equality with 600 nM counts as NO; only EC50 strictly below is YES

COc1ccc(CN2CCC(ON=C3CCN(c4ccc(S(C)(=O)=O)cc4F)CC3)CC2)c(F)c1 [Example 66-50] :: NO
Cn1cccc1CN1CCC(ON=C2CCN(c3ccc(S(C)(=O)=O)cc3F)CC2)CC1 [Example 66-1] :: NO
CC(C)c1ccc(CN2CCC(ON=C3CCN(c4ccc(S(C)(=O)=O)cc4F)CC3)CC2)cc1 [Example 66-32] :: YES
Cc1cc(CN2CCC(ON=C3CCN(c4ccc(S(C)(=O)=O)cc4F)CC3)CC2)n(C)n1 [Example 66-13] :: NO
CS(=O)(=O)c1ccc(N2CCC(=NOC3CCN(Cc4ccc(OC(F)(F)F)cc4)CC3)CC2)c(F)c1 [Example 66-42] :: YES
CC(C)(C)CN1CCC(ON=C2CCN(c3ccc(S(C)(=O)=O)cc3F)CC2)CC1 [Example 66-22] :: NO
COc1ccc(CN2CCC(ON=C3CCN(c4ccc(S(C)(=O)=O)cc4F)CC3)CC2)cc1F [Example 66-38] :: YES
CCc1ccc(CN2CCC(ON=C3CCN(c4ccc(S(C)(=O)=O)cc4F)CC3)CC2)cc1 [Example 66-27] :: YES
CC(=O)Nc1ccc(CN2CCC(ON=C3CCN(c4ccc(S(C)(=O)=O)cc4F)CC3)CC2)cc1 [Example 66-39] :: NO
Cc1nc(CN2CCC(ON=C3CCN(c4ccc(S(C)(=O)=O)cc4F)CC3)CC2)c[nH]1 [Example 66-8] :: NO
CS(=O)(=O)c1ccc(N2CCC(=NOC3CCN(Cc4ccccc4C#N)CC3)CC2)c(F)c1 [Example 66-19] :: NO
CS(=O)(=O)c1ccc(N2CCC(=NOC3CCN(Cc4ccc(C(F)(F)F)cc4)CC3)CC2)c(F)c1 [Example 66-31] :: YES
CS(=O)(=O)c1ccc(N2CCC(=NOC3CCN(Cc4cccc(C(F)(F)F)c4)CC3)CC2)c(F)c1 [Example 66-30] :: NO
Cc1ccc(CN2CCC(ON=C3CCN(c4ccc(S(C)(=O)=O)cc4F)CC3)CC2)c(F)c1 [Example 66-47] :: NO
CS(=O)(=O)c1ccc(N2CCC(=NOC3CCN(Cc4ncc[nH]4)CC3)CC2)c(F)c1 [Example 66-2] :: NO
CC(C)Oc1ccc(CN2CCC(ON=C3CCN(c4ccc(S(C)(=O)=O)cc4F)CC3)CC2)cc1 [Example 66-40] :: YES
CS(=O)(=O)c1ccc(N2CCC(=NOC3CCN(Cc4ccncc4)CC3)CC2)c(F)c1 [Example 66-4] :: NO
CS(=O)(=O)c1ccc(N2CCC(=NOC3CCN(Cc4ccccc4F)CC3)CC2)c(F)c1 [Example 66-16] :: YES
CC(C)CCN1CCC(ON=C2CCN(c3ccc(S(C)(=O)=O)cc3F)CC2)CC1 [Example 66-23] :: NO
CCOc1ccc(CN2CCC(ON=C3CCN(c4ccc(S(C)(=O)=O)cc4F)CC3)CC2)cc1 [Example 66-46] :: YES
CS(=O)(=O)c1ccc(N2CCC(=NOC3CCN(Cc4ccccc4)CC3)CC2)c(F)c1 [Example 66-15] :: NO
CS(=O)(=O)c1ccc(N2CCC(=NOC3CCN(Cc4ccc(Cl)cc4)CC3)CC2)c(F)c1 [Example 66-28] :: YES
CS(=O)(=O)c1ccc(N2CCC(=NOC3CCN(Cc4ccccc4Cl)CC3)CC2)c(F)c1 [Example 66-17] :: NO
Cn1ccnc1CN1CCC(ON=C2CCN(c3ccc(S(C)(=O)=O)cc3F)CC2)CC1 [Example 66-12] :: NO
CS(=O)(=O)c1ccc(N2CCC(=NOC3CCN(Cc4ccc(Br)cc4F)CC3)CC2)c(F)c1 [Example 66-44] :: NO
CS(=O)(=O)c1ccc(N2CCC(=NOC3CCN(Cc4ncco4)CC3)CC2)c(F)c1 [Example 66-20] :: NO
Cn1cc(CN2CCC(ON=C3CCN(c4ccc(S(C)(=O)=O)cc4F)CC3)CC2)cn1 [Example 66-10] :: NO
Cn1cc(Cl)c(CN2CCC(ON=C3CCN(c4ccc(S(C)(=O)=O)cc4F)CC3)CC2)n1 [Example 66-5] :: NO
COc1ccc(CN2CCC(ON=C3CCN(c4ccc(S(C)(=O)=O)cc4F)CC3)CC2)cc1 [Example 66-45] :: NO
CS(=O)(=O)c1ccc(N2CCC(=NOC3CCN(Cc4ccccc4C(F)(F)F)CC3)CC2)c(F)c1 [Example 66-29] :: NO

###

Each entry below lists one item and its recorded EC50 value.
target: human GPR119 receptor (Homo sapiens, UniProt Q8TDV5, S329A/T327A); construct: N-terminal leader […]; expressed in transfected cells; experiment: cAMP assay (LANCE cAMP-384) in HEK293 cells stably expressing mutant human GPR119 receptor; assay type: cell-based; details: the 43rd table, compounds 75-1 to 75-38; read-out: EC50
parameter: EC50 (nM)

CC(C)OC(=O)N1CCC(ON=C2CCN(c3cc(F)c(CC(=O)NC[C@@H]4CCCN4)cc3F)CC2)CC1 :: 203
CC(C)OC(=O)N1CCC(ON=C2CCN(c3cc(F)c(CC(=O)NC4CCCNC4)cc3F)CC2)CC1 (stereo not drawn) :: 122
CC(C)OC(=O)N1CCC(ON=C2CCN(c3cc(F)c(CC(=O)N4CCC[C@H](N)C4)cc3F)CC2)CC1 :: 116

###

Target: human GPR119 receptor (Homo sapiens, UniProt Q8TDV5, S329A/T327A)
Construct: N-terminal leader […]; expressed in transfected cells
Experiment: cAMP assay (LANCE cAMP-384) in HEK293 cells stably expressing mutant human GPR119 receptor
Type: cell-based
Details: the 32nd table; read-out: EC50
Protocol: Quantitative detection of cAMP accumulation from cells expressing human GPR119 receptor was achieved using Perkin Elmer's LANCE cAMP-384 Kit (Cat#AD0264) according to the manufacturer's protocol. […] After 1 hour, bound europium-labeled cAMP tracer was measured using a Perkin Elmer ViewLux. The quantity of cAMP generated in each well was derived from a standard curve. […]
pEC50: −log10 of the molar value.
parameter: pEC50

CS(=O)(=O)c1ccc(N2CCC(=NOC3CCN(c4ccc(C(F)(F)F)cn4)CC3)CC2)c(F)c1 :: 6.31
CS(=O)(=O)c1ccc(N2CCC(=NOC3CCN(c4nccc(Cl)n4)CC3)CC2)c(F)c1 :: 5.87
CS(=O)(=O)c1ccc(N2CCC(=NOC3CCN(c4ccc(Br)cn4)CC3)CC2)c(F)c1 :: 6.41
CS(=O)(=O)c1ccc(N2CCC(=NOC3CCN(c4ncc(Br)cn4)CC3)CC2)c(F)c1 :: 7.11
CS(=O)(=O)c1ccc(N2CCC(=NOC3CCN(c4nccs4)CC3)CC2)c(F)c1 :: 6.35
Cc1ccnc(N2CCC(ON=C3CCN(c4ccc(S(C)(=O)=O)cc4F)CC3)CC2)n1 :: 6.12

###

molecular target: human GPR119 receptor (Homo sapiens, UniProt Q8TDV5, S329A/T327A); construct: N-terminal leader […]; expressed in transfected cells; test: cAMP assay (LANCE cAMP-384) in HEK293 cells stably expressing mutant human GPR119 receptor; type: cell-based; settings: the 44th table, compounds 77-1 to 77-14; read-out: EC50
pEC50: −log10 of the molar value.
Each entry below lists one item and its recorded pEC50 value.
parameter: pEC50

CCc1cnc(N2CCC(ON=C3CCN(c4cc(F)c(CC(=O)N5CCNCC5)cc4F)CC3)CC2)nc1 :: 7.41
CCc1cnc(N2CCC(ON=C3CCN(c4cc(F)c(CC(=O)N5CC[C@@H](N(C)C)C5)cc4F)CC3)CC2)nc1 :: 8.05
CCc1cnc(N2CCC(ON=C3CCN(c4cc(F)c(CC(=O)N5CC[C@H](N(C)C)C5)cc4F)CC3)CC2)nc1 :: 8.22
CCc1cnc(N2CCC(ON=C3CCN(c4cc(F)c(CC(=O)N(C)C)cc4F)CC3)CC2)nc1 :: 7.74
